assay: Phase 1/1b study: Compound A pharmacokinetics in patients; assay type: in vivo, human; settings: human, plasma, oral; 13 subjects, data as of May 15, 2023; read-out: terminal half-life in the plasma
Reported endpoint: half-life

[Q] So what's the measured half-life for this one? CCn1c(-c2cccnc2[C@H](C)OC)c2c3cc(ccc31)N1CCO[C@@H](C[C@H](NC(=O)[C@H](C(C)C)N(C)C(=O)C3(F)CCN(C(=O)C#CC(C)(C)N(C)C)CC3)C(=O)N3CCC[C@H](N3)C(=O)OCC(C)(C)C2)C1 (atropisomer, axis not shown)
[A] < 180 min

====

assay: Phase 1/1b study: Compound A pharmacokinetics in patients; type: in vivo, human; conditions: human, plasma; patients, oral, data as of Aug. 8, 2023; read-out: terminal half-life (converted)
Reported endpoint: half-life (h)
Give just the numeric value; h need not be written.

[Q] So what's the measured half-life for this one? CCn1c(-c2cccnc2[C@H](C)OC)c2c3cc(ccc31)N1CCO[C@@H](C[C@H](NC(=O)[C@H](C(C)C)N(C)C(=O)C3(F)CCN(C(=O)C#CC(C)(C)N(C)C)CC3)C(=O)N3CCC[C@H](N3)C(=O)OCC(C)(C)C2)C1 (atropisomer, axis not shown) [Compound A]
[A] 1.8

====

experiment: Phase 1/1b study: Compound A pharmacokinetics in patients; type: in vivo, human; conditions: human, oral; 13 subjects, plasma, data as of May 15, 2023; read-out: median Tmax
Reported endpoint: Tmax (h)
Give just the numeric value; h need not be written.

[Q] So what's the measured Tmax for this one? CCn1c(-c2cccnc2[C@H](C)OC)c2c3cc(ccc31)N1CCO[C@@H](C[C@H](NC(=O)[C@H](C(C)C)N(C)C(=O)C3(F)CCN(C(=O)C#CC(C)(C)N(C)C)CC3)C(=O)N3CCC[C@H](N3)C(=O)OCC(C)(C)C2)C1 (atropisomer, axis not shown)
[A] 1

====

test: Phase 1/1b study: Compound A pharmacokinetics in patients; format: in vivo, human; details: human, plasma; patients, oral, data as of Aug. 8, 2023; read-out: median Tmax
Reported endpoint: Tmax (h)
Give just the numeric value; h need not be written.

[Q] So what's the measured Tmax for this one? CCn1c(-c2cccnc2[C@H](C)OC)c2c3cc(ccc31)N1CCO[C@@H](C[C@H](NC(=O)[C@H](C(C)C)N(C)C(=O)C3(F)CCN(C(=O)C#CC(C)(C)N(C)C)CC3)C(=O)N3CCC[C@H](N3)C(=O)OCC(C)(C)C2)C1 (atropisomer, axis not shown)
[A] 1
